Where do these numbers come from? They come from patent US20230322953A1.

- Measured on: T1, biotinylated human BCMA-Fc, Avitag recombinant protein (ACRO Biosystems, #BC7-H82F0) (human, UniProt Q02223 1-54, biotinylated)
- T1 construct: extracellular domain; Bought protein; also called human BCMA protein; recombinant human BCMA-ECD-Fc; not shown: Fc of the bought fusion protein; Avitag
- T1 sequence (looked up): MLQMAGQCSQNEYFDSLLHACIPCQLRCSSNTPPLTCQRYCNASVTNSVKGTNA
- Method description: BLI (Octet Red96e), biotinylated BCMA-Fc on SA sensor, antibody in solution, 1:1 global fit

Binder	koff (s⁻¹)
PR000943, anti-BCMA HCAb antibody, clone 1005P16A10 (antibody, human IgG1, V domains shown, Heavy-chain-only antibody (HCAb), human IgG1 Fc, no light chain) VH: EVQLVETGGGLIQPGGSLRLSCAASGFPVSSNYMSWVRQAPGKGLEWVSVIFSGGRTYYADSVKGRFTISRDNSKNTLYLQMNSLRAEDTAVYYCARRNWIDGRDAFDIWGQGTMVTVSS	1.93e-05
PR000940, anti-BCMA HCAb antibody, clone 1005P10H8 (antibody, human IgG1, V domains shown, Heavy-chain-only antibody (HCAb), human IgG1 Fc, no light chain) VH: EVQLLESGGGLVQPGGSLRLSCAASGFTFSSYAMIWVRQAPGKGLEWVSGISESGGSTYYADSVKGRFTISRDNSKNTLYLQMNSLRAEDTAVYFCVKDLDDILTGYYKDYWGQGTLVTVSS	6.09e-05
PR001046, anti-BCMA HCAb antibody, clone 1005P63B7 (antibody, human IgG1, V domains shown, Heavy-chain-only antibody (HCAb), human IgG1 Fc, no light chain) VH: EVQLVETGGGLIQPGGSLRLSCAASGFTVSDNYMTWVRQAPGKGLEWVSVIFSGGNTYYADSVKGRFTISRDNAKNTLYLQMNSLRAEDTALYYCARRNYDDTRGTDVFDIWGQGTMVTVSS	1.07e-05
PR001035, anti-BCMA HCAb antibody, clone 1005P36F3 (antibody, human IgG1, V domains shown, Heavy-chain-only antibody (HCAb), human IgG1 Fc, no light chain) VH: EVQLVETGGGLIQPGGSLRLSCAASGFTVSSNYMTWVRQAPGKGLEWVSVIFSGGSTYYADSVKGRFTISRDNSKNTLYLQMNSLRAEDTAVYYCARRIAVAGHDVFDIWGQGTMVTVSS	8.98e-05
